# targetOrTestSystem: Leucine aminopeptidase (Plasmodium falciparum (isolate 3D7))
# methodSummary: P. falciparum M17LAP inhibitors, primary screen, biochemical, fluorogenic H-Leu-NHMec substrate, 1536-well (AID 1619);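 also: plate controls were full reaction with DMSO carrier for no effect and no enzyme background for full effect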
# conditionContext: recombinant M17LAP, H-Leu-NHMec fluorogenic kinetic assay; at 30 µM; hits give high values
In all, about 220,000 compounds went through this assay and about 830 (0.38%) were called active. Only a sample is shown. Potency and affinity values are given separately.
Collected inhibition values appear next to each entry.

>  <compound>
CCN1C(=O)CC(N2CCN(c3ccc(C(=O)c4ccncc4)cc3)CC2)C1=O (stereo not drawn)

>  <inhibition / %>
31.2

$$$$
>  <compound>
O=C(COC(=O)c1ccccc1NC(=O)C1CC1)c1ccc2c(c1)OCCO2

>  <inhibition / %>
12.2

$$$$
>  <compound>
CCOC(=O)C(C(=O)OCC)N(C#N)c1nc(OC)nc(N(C)C)n1

>  <inhibition / %>
3.46

$$$$
>  <compound>
COCCn1c(C)cc(C(=O)COC(=O)c2ccc[nH]c2=O)c1C

>  <inhibition / %>
49.1

$$$$
>  <compound>
O=C(CN1CCN(Cc2ccc(F)cc2Cl)C1=O)NCCc1ccccc1

>  <inhibition / %>
8.72

$$$$
>  <compound>
CC(C)c1ccc(OCC(=O)Nc2cccc(C(=O)Nc3ccccc3C(=O)O)c2)cc1

>  <inhibition / %>
5.28

$$$$
>  <compound>
COc1ccc(N2CCN(c3oc(-c4ccccc4OC)nc3C#N)CC2)cc1

>  <inhibition / %>
0.71

$$$$
>  <compound>
CCC(C)n1c(SCC(=O)NC(=O)Nc2ccc3c(c2)OCCO3)nc2ccccc2c1=O (stereo not drawn)

>  <inhibition / %>
-1.6

$$$$
>  <compound>
Cc1sc(NC(=O)c2ccc(Cl)s2)c(C(N)=O)c1C

>  <inhibition / %>
-3.24

$$$$
>  <compound>
CCOc1ccc(S(=O)(=O)Nc2ccc(O)c(Sc3ncn[nH]3)c2)cc1

>  <inhibition / %>
71.4

$$$$
>  <compound>
CC1(C)CC2CC(C)(CN2/C=C2/CCCCC2=O)C1 (stereo not drawn)

>  <inhibition / %>
16.8

$$$$
>  <compound>
O=C(O)c1ccc(COc2ccccc2/C=C2/NC(=O)N(c3cccc(Cl)c3)C2=O)cc1

>  <inhibition / %>
7.83

$$$$
>  <compound>
c1ccc(Cn2nnc3c(N4CCc5ccccc54)ncnc32)cc1

>  <inhibition / %>
-4.35

$$$$
>  <compound>
O/N=C/c1ccc(OCc2ccccc2)c(Cl)c1

>  <inhibition / %>
13.4

$$$$
>  <compound>
Cc1cc(C(=O)COC(=O)c2ccc[nH]c2=O)c(C)n1-c1ccccc1F

>  <inhibition / %>
8.77

$$$$
>  <compound>
Cc1ccc(Cn2ccc(NC(=O)c3cc(C)on3)n2)cc1

>  <inhibition / %>
-2.56

$$$$
>  <compound>
Cc1cc(C(=O)COC(=O)C2=NNC(=O)CC2)c(C)n1-c1ccccc1

>  <inhibition / %>
7.43

$$$$
>  <compound>
O=C(COC(=O)c1cnccn1)Nc1ccc2c(c1)OCO2

>  <inhibition / %>
13.5

$$$$
>  <compound>
COc1cc(/C=N/Nc2ccc3ccccc3c2)ccc1OC(=O)c1ccco1

>  <inhibition / %>
0.98

$$$$
>  <compound>
Fc1c(F)c(F)c(N/N=C/c2c[nH]c3ccccc23)c(F)c1F

>  <inhibition / %>
-1.25

$$$$
>  <compound>
COC(=O)N/N=C/c1c[nH]c2ccccc12

>  <inhibition / %>
14.5

$$$$
>  <compound>
Cc1cc(C(=O)COC(=O)c2ccc[nH]c2=O)c(C)n1C

>  <inhibition / %>
14.9

$$$$
>  <compound>
COc1cc(/C=N/Nc2ccc(Cl)cc2)ccc1OC(=O)c1cccs1

>  <inhibition / %>
4.49

$$$$

Origin of values: PubChem BioAssay AID1619
